Reference for the values: paper PMC4820706

Entries and their measured pKd follow.
Target: gankyrin (Homo sapiens, UniProt O75832)
Construct: gene PSMD10; His-tagged full-length human gankyrin
Sequence (O75832 1-226): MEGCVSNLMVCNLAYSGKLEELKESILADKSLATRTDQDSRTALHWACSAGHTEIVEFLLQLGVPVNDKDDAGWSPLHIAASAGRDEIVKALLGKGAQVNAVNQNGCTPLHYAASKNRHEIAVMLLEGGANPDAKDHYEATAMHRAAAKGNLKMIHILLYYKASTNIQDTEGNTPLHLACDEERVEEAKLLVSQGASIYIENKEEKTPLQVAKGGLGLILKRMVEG
Measurement notes: ITC
Type: binding
pKd: −log10 of the molar value.

Field request: pKd | item: COC(=O)c1ccc(-n2cc(CNS(=O)(=O)c3ccc4ccccc4c3)nn2)cc1
~4.25

Now for the compound whose pKd we want.
Field request: pKd | item: CCCNC(=O)c1ccc(-n2cc(CCCNS(=O)(=O)c3ccc(C)cc3)nn2)cc1
~5.00
